These data points were gathered from PubChem BioAssay AID1663.

- experiment_summary: inhibitors of platelet dense granule secretion, primary screen, cell-based, MLPCN, human platelets (AID 1663)
- conditions_used: human platelet-rich plasma, SFLLRN dense granule ATP release, luminescence;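 compounds screened at 7.5 µM in platelet-rich plasma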
About 660 (0.22%) of roughly 300,000 compounds were called active.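 The calls were made as follows: active = mean replicate score, as percent of positive control, at or above 50; inconclusive = mean below 50 but at least one replicate at or above 50; inactive = mean and every replicate below 50.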 This excerpt belongs to a sample that is enriched for actives.
Lab note: assign the record to one of active, inactive

Record excerpt, results attached:
- molecule: "COC(=O)/C=C\\C(=O)Nc1cccc([N+](=O)[O-])c1"
  class_name: "active"
- molecule: "COc1cccc(CNC(=O)CCCC(=O)Nc2cccc([N+](=O)[O-])c2)c1"
  class_name: "inactive"
- molecule: "O=C(Nc1ccc(Cl)cc1)Nc1ccc(Oc2cccnc2)nc1"
  class_name: "inactive"
- molecule: "COc1ccc(C(=O)Nc2cccc(NC(=O)c3ccc(OC)cc3OC)n2)c(OC)c1"
  class_name: "inactive"

**Query** Please share the test call associated with CC(=O)Nc1ccc(S(=O)(=O)NCC2CCC(C(=O)NCCc3ccccc3)CC2)cc1 (stereo unspecified) .
**Result** inactive

**Query** Assay outcome for COc1ccc(C(=O)Nc2ccccc2C(=O)N/N=C/c2ccc(O)c(OC)c2)cc1 : what was it?
**Result** active

**Query** // return assay outcome for COc1ccc(C2=NS(=O)(=O)N(C)C(C(=O)N(C)Cc3ccccc3)=C2)cc1
**Result** inactive

**Query** In this assay, the call recorded for C/C=C/C(=O)OCC(=O)Nc1ccc(F)cc1Cl was what?
**Result** inactive

**Query** Outcome? COc1ccc(/C=N/NC(=O)c2ccccc2)cc1OS(=O)(=O)c1ccccc1
**Result** inactive
